- tgt: HSV-1 ribonucleotide reductase (Human alphaherpesvirus 1 strain 17, UniProt P08543+P10224)
- Sequence (P10224 whole entry): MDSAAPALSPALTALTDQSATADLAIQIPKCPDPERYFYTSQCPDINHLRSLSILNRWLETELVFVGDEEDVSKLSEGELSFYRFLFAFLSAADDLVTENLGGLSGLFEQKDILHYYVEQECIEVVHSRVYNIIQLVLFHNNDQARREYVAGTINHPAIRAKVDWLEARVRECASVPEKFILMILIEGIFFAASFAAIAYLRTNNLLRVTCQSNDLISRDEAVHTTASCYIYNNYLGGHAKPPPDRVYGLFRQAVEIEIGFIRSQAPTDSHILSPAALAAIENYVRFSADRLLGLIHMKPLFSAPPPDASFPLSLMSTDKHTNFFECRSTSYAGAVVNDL
- Sequence (P08543 whole entry): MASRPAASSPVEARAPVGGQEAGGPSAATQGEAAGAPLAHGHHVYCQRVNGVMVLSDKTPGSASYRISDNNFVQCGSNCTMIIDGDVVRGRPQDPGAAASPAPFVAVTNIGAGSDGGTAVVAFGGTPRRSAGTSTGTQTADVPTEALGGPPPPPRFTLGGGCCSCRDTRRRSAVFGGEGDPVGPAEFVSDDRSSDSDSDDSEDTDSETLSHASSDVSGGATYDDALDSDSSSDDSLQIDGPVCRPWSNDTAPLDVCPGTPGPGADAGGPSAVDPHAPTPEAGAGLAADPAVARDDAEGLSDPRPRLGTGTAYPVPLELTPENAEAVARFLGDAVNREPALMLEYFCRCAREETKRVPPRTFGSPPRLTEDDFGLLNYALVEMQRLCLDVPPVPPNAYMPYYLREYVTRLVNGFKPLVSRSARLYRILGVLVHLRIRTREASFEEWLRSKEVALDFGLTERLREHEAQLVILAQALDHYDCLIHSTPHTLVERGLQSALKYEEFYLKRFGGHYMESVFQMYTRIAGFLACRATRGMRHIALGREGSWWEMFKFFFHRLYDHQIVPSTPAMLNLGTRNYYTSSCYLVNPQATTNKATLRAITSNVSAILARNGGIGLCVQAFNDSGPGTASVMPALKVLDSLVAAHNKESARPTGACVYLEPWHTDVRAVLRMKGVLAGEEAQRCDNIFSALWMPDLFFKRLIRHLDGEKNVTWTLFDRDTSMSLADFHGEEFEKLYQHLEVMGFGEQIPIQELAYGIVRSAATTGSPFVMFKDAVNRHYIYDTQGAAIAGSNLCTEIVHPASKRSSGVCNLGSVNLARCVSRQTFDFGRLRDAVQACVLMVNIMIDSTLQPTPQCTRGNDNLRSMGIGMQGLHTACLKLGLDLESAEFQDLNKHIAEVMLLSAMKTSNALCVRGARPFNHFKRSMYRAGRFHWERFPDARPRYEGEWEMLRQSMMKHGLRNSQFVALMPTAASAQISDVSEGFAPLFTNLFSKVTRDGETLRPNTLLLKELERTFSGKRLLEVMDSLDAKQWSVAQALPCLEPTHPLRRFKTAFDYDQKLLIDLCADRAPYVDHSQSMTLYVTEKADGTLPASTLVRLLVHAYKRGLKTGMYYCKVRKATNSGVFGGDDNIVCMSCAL
- assay_name: Inhibition of HSV-1 ribonucleotide reductase (reduction of CDP)
- condition_info: partially purified enzyme 65 μg, 54 μM CDP, 30 minutes at 37° C., pH 7.8; read-out: IC50, fifty percent reduction of the HSV-1 ribonucleotide reductase activity
readout_kind: IC50 (µM)
Write the answer as a number in µM, unit excluded.

Prompt: # return recorded IC50 for input COc1c(OC)c(OC(C)=O)c2cc(Cl)ccc2c1OC(C)=O
Response: 31

----------
- tgt: Hamster 96-V-2(600) ribonucleotide reductase (Cricetulus griseus, UniProt G3I2K8+G3I3B7)
- Construct: overproducing strain; endogenous in cells
- Sequence (G3I3B7 entry or part of it): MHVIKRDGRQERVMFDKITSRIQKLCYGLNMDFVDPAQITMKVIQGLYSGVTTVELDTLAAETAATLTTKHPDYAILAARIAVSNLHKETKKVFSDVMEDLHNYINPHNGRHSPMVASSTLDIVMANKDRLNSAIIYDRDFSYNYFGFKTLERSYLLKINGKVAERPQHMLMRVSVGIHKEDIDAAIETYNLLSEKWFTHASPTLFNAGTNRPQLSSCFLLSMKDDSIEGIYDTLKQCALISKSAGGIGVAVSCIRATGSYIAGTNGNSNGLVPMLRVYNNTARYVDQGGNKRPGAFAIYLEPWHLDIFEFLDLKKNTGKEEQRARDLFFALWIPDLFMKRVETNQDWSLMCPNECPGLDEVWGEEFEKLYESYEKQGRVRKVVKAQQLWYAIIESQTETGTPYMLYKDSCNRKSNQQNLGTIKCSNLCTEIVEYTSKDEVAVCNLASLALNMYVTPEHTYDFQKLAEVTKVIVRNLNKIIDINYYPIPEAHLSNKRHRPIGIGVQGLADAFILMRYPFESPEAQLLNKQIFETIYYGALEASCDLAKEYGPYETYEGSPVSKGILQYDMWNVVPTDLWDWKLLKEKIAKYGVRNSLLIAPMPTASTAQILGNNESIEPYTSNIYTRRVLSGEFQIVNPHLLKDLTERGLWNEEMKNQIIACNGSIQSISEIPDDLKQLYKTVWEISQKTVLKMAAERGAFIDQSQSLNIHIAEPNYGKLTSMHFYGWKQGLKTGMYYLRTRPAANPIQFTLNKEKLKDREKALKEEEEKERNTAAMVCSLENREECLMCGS
- Sequence (G3I2K8 entry or part of it): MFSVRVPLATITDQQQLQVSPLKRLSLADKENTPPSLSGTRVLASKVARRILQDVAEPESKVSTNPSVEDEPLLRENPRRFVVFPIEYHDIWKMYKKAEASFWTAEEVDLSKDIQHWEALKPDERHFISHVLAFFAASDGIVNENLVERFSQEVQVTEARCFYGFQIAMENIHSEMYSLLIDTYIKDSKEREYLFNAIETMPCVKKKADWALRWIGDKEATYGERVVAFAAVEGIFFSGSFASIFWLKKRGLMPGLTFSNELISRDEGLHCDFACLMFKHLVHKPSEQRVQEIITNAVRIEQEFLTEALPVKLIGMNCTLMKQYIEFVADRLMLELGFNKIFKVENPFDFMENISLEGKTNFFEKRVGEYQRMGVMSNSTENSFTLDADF
- assay_name: Inhibition of hamster 96-V-2(600) ribonucleotide reductase (reduction of CDP)
- condition_info: partially purified enzyme 40 μg, in the presence of adenosine triphosphate (4 mM) and magnesium chloride (11.5 mM)
readout_kind: IC50

Prompt: # return recorded IC50 for input COc1c(OC)c(OC(C)=O)c2cc(Cl)ccc2c1OC(C)=O
Response: > 250 µM
